Recorded measurements of HCT-116 % Inhibition at 0.25 μM, one per entry
- Test system: HCT-116 cell line
- PROCEDURE DETAILS: Inhibition of cell growth, tetrazolium salt (MTT) assay
- Type: cell-based
- CONDITION LABEL: 0.25 μM compound; HCT-116; Table 4
REPORTED ENDPOINT: HCT-116 % Inhibition at 0.25 μM

>>> recorded_result("Nc1nc(NC2CCN(C(=O)C3CCCCC3)CC2)sc1C(=O)c1c(F)cccc1F")
"30%"
>>> recorded_result("Cc1ccc(C(=O)N2CCC(Nc3nc(N)c(C(=O)c4c(F)cccc4F)s3)CC2)cc1")
"21%"
>>> recorded_result("Nc1nc(NC2CCN(C(=O)c3ccc(Cl)cc3)CC2)sc1C(=O)c1c(F)cccc1F")
"40%"
>>> recorded_result("Nc1nc(NC2CCN(C(=O)c3ccccc3Cl)CC2)sc1C(=O)c1c(F)cccc1F")
"43%"
>>> recorded_result("CCOC(=O)N1CCC(Nc2nc(N)c(C(=O)c3c(F)cccc3F)s2)CC1")
"45%"
>>> recorded_result("CCN(CC)C(=O)N1CCC(Nc2nc(N)c(C(=O)c3c(F)cccc3F)s2)CC1")
"42%"
>>> recorded_result("C/C=C/C(=O)N1CCC(Nc2nc(N)c(C(=O)c3c(F)cccc3F)s2)CC1")
"27%"
>>> recorded_result("CC(=O)OC(C(=O)N1CCC(Nc2nc(N)c(C(=O)c3c(F)cccc3F)s2)CC1)c1ccccc1 (centres unmarked)")
"20%"
>>> recorded_result("Nc1nc(NC2CCN(C(=O)c3ccccc3Br)CC2)sc1C(=O)c1c(F)cccc1F")
"42%"
>>> recorded_result("Nc1nc(NC2CCN(C(=O)COc3ccccc3)CC2)sc1C(=O)c1c(F)cccc1F")
"15%"
>>> recorded_result("Nc1nc(NC2CCN(C(=O)c3ccc4ccccc4c3)CC2)sc1C(=O)c1c(F)cccc1F")
"25%"
>>> recorded_result("N#Cc1ccc(C(=O)N2CCC(Nc3nc(N)c(C(=O)c4c(F)cccc4F)s3)CC2)cc1")
"37%"
>>> recorded_result("Nc1nc(NC2CCN(C(=O)C(Cl)(c3ccccc3)c3ccccc3)CC2)sc1C(=O)c1c(F)cccc1F")
"34%"
>>> recorded_result("COC(=O)CCC(=O)N1CCC(Nc2nc(N)c(C(=O)c3c(F)cccc3F)s2)CC1")
"28%"

----------
CDK4 % Inhibition at 0.03 μM overview
- TESTED ON: human CDK4 and genetically truncated (1-264) cyclin D3 (Homo sapiens)
- Sequence (P11802 whole entry, the tested form may be a part): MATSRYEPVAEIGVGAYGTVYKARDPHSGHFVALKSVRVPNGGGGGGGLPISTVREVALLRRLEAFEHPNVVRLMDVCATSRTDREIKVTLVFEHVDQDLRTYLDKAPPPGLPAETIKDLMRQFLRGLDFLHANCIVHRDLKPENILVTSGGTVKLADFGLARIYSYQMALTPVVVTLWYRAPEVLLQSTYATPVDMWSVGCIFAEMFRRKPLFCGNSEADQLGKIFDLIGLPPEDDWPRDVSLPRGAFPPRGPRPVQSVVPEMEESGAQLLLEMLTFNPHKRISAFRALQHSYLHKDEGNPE
- Sequence (P30281 1-264 partner): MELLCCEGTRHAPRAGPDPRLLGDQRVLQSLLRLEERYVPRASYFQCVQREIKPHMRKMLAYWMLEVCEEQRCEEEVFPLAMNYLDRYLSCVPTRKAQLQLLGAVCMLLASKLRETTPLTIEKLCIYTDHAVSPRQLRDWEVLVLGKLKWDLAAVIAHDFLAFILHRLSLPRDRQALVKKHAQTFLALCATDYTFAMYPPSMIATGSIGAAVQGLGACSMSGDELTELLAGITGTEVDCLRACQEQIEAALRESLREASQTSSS
- PROCEDURE DETAILS: Inhibition of CDK4/Cyclin D Retinoblastoma Kinase Activity
- Format: biochemical
- CONDITION LABEL: at 0.03 μM
REPORTED ENDPOINT: CDK4 % Inhibition at 0.03 μM (%)

>>> recorded_result("COc1ccccc1CCC(=O)N1CCC(Nc2nc(N)c(C(=O)c3c(F)cccc3F)s2)CC1")
41
>>> recorded_result("CCC(C)CC(=O)N1CCC(Nc2nc(N)c(C(=O)c3c(F)cccc3F)s2)CC1 (centres unmarked)")
39
>>> recorded_result("CCSc1ncccc1C(=O)N1CCC(Nc2nc(N)c(C(=O)c3c(F)cccc3F)s2)CC1")
54
>>> recorded_result("Nc1nc(NC2CCN(C(=O)c3c(Cl)cc(Cl)cc3Cl)CC2)sc1C(=O)c1c(F)cccc1F")
8
>>> recorded_result("Nc1nc(NC2CCN(C(=O)c3ccc(C(F)(F)F)cc3C(F)(F)F)CC2)sc1C(=O)c1c(F)cccc1F")
35
>>> recorded_result("CCCc1c(C(=O)N2CCC(Nc3nc(N)c(C(=O)c4c(F)cccc4F)s3)CC2)cnn1-c1ccccc1")
51
>>> recorded_result("CC(=O)Nc1ccc(C(=O)N2CCC(Nc3nc(N)c(C(=O)c4c(F)cccc4F)s3)CC2)cc1")
83
>>> recorded_result("Nc1nc(NC2CCN(C(=O)c3cc(Cl)ccc3Cl)CC2)sc1C(=O)c1c(F)cccc1F")
72
>>> recorded_result("CCn1nc(C)c(Br)c1C(=O)N1CCC(Nc2nc(N)c(C(=O)c3c(F)cccc3F)s2)CC1")
15
>>> recorded_result("CCC(Oc1ccccc1)C(=O)N1CCC(Nc2nc(N)c(C(=O)c3c(F)cccc3F)s2)CC1 (centres unmarked)")
32
>>> recorded_result("Nc1nc(NC2CCN(C(=O)c3cnc(Cl)c(Cl)c3)CC2)sc1C(=O)c1c(F)cccc1F")
63
>>> recorded_result("CC(=O)Nc1ccccc1C(=O)N1CCC(Nc2nc(N)c(C(=O)c3c(F)cccc3F)s2)CC1")
25
>>> recorded_result("Cc1nnsc1C(=O)N1CCC(Nc2nc(N)c(C(=O)c3c(F)cccc3F)s2)CC1")
12
>>> recorded_result("Nc1nc(NC2CCN(C(=O)c3ccc(C(F)(F)F)cc3)CC2)sc1C(=O)c1c(F)cccc1F")
41
>>> recorded_result("CC(Oc1ccccc1)C(=O)N1CCC(Nc2nc(N)c(C(=O)c3c(F)cccc3F)s2)CC1 (centres unmarked) [Example R9]")
19
>>> recorded_result("COc1cc(OC)cc(C(=O)N2CCC(Nc3nc(N)c(C(=O)c4c(F)cccc4F)s3)CC2)c1")
73
>>> recorded_result("N#Cc1cccc(C(=O)N2CCC(Nc3nc(N)c(C(=O)c4c(F)cccc4F)s3)CC2)c1")
62
>>> recorded_result("Nc1nc(NC2CCN(C(=O)c3cccc(C(F)(F)F)c3)CC2)sc1C(=O)c1c(F)cccc1F")
75
>>> recorded_result("Nc1nc(NC2CCN(C(=O)c3cc4ccccc4s3)CC2)sc1C(=O)c1c(F)cccc1F")
73
>>> recorded_result("Nc1nc(NC2CCN(C(=O)c3c(F)cccc3Cl)CC2)sc1C(=O)c1c(F)cccc1F")
34
>>> recorded_result("COc1cccc(C(=O)N2CCC(Nc3nc(N)c(C(=O)c4c(F)cccc4F)s3)CC2)c1OC")
58
>>> recorded_result("Cc1ccc(Oc2ncccc2C(=O)N2CCC(Nc3nc(N)c(C(=O)c4c(F)cccc4F)s3)CC2)cc1")
49
>>> recorded_result("Nc1nc(NC2CCN(C(=O)c3ccc(OC(F)(F)F)cc3)CC2)sc1C(=O)c1c(F)cccc1F")
58
>>> recorded_result("Cc1ccc(S(=O)(=O)N[C@@H](Cc2ccccc2)C(=O)N2CCC(Nc3nc(N)c(C(=O)c4c(F)cccc4F)s3)CC2)cc1")
13
>>> recorded_result("Nc1nc(NC2CCN(C(=O)c3ccc(N=Nc4ccccc4)cc3)CC2)sc1C(=O)c1c(F)cccc1F")
69
>>> recorded_result("CC(Oc1ccccc1)C(=O)N1CCC(Nc2nc(N)c(C(=O)c3c(F)cccc3F)s2)CC1 (centres unmarked) [Example R159]")
36
>>> recorded_result("Cc1ccc(Sc2ncccc2C(=O)N2CCC(Nc3nc(N)c(C(=O)c4c(F)cccc4F)s3)CC2)cc1")
53
>>> recorded_result("Cc1ccc(C)c(C(=O)N2CCC(Nc3nc(N)c(C(=O)c4c(F)cccc4F)s3)CC2)c1")
7
>>> recorded_result("CN(C)c1ccc(C(=O)N2CCC(Nc3nc(N)c(C(=O)c4c(F)cccc4F)s3)CC2)cc1")
16
